meta.source: ChEMBL document CHEMBL2218924

TARGET_ENTITY: Dual specificity mitogen-activated protein kinase kinase 1 (Homo sapiens)
TEST_CONDITIONS: at 10 µM
Description: Millipore: Percentage of residual kinase activity of MAP2K1 at 10uM relative to control. Control inhibitor: Phosphoric acid* at 0.3uM. Buffer: 50 mM Tris pH 7.5, 0.2 mM EGTA, 0.1% ?-mercaptoethanol, 0.01% Brij-35
RECORDED_ENDPOINT: residual activity

Solved entries:
COc1ccc(S(=O)(=O)N(CCO)c2ccccc2CN(C)C/C=C/c2ccc(Cl)cc2)cc1 79%
Nc1nc(Nc2ccc(S(N)(=O)=O)cc2)nn1C(=S)Nc1c(F)cccc1F 6%
CC(C)n1cnc2c(NCc3ccccc3)nc(NCCCO)nc21 110%
Oc1ccc(-c2nc(-c3ccc(F)cc3)c(-c3ccncc3)[nH]2)cc1 104%
Nc1n[nH]c2nnc(-c3c(-c4ccccc4)nn4ccccc34)cc12 38%

q: Consider the compound COc1cc2ncnc(Nc3ccc(Oc4ccccc4)cc3)c2cc1OC and give its recorded residual activity.
a: 38%

q: Consider the compound CNc1cc2c(Nc3cccc(Br)c3)ncnc2cn1 and give its recorded residual activity.
a: 53%

q: Consider the compound O=C1NC(=O)/C(=C\c2ccc3nccnc3c2)S1 and give its recorded residual activity.
a: 84%

q: Consider the compound Cc1ccc(NC2=CC(=O)c3sc(C)nc3C2=O)cc1 and give its recorded residual activity.
a: 116%

q: Consider the compound Nc1cccc(-c2cc3c(Oc4cccc(O)c4)ncnc3[nH]2)c1 and give its recorded residual activity.
a: 102%

q: Consider the compound Cn1cnc2cc3c(Nc4cccc(Br)c4)ncnc3cc21 and give its recorded residual activity.
a: 88%

* * *

TARGET_ENTITY: Serine/threonine-protein kinase MARK1 (Homo sapiens)
TEST_CONDITIONS: at 1 µM
Each entry below lists one item and its recorded residual activity value.

Solved entries:
Cc1cccc(-c2[nH]c(C(C)(C)C)nc2-c2ccc3c(c2)OCO3)n1 85%
Cn1cnc2cc3c(Nc4cccc(Br)c4)ncnc3cc21 102%
N#CC(C#N)=C(N)/C(C#N)=C/c1ccc(O)cc1 89%
CN(C)CCCn1cc(C2=C(c3c[nH]c4ccccc34)C(=O)NC2=O)c2ccccc21 65%
COc1cc2ncnc(Nc3ccc(NC(=O)c4ccccc4)cc3)c2cc1OC 105%

q: # assay system Serine/threonine-protein kinase MARK1 (Homo sapiens): give residual activity of Ic1cccc(CSc2nnc(-c3ccncc3)o2)c1
a: 4%

q: # assay system Serine/threonine-protein kinase MARK1 (Homo sapiens): give residual activity of O=C(O)c1ccc2c3c1cccc3c(=O)n1c3ccccc3nc21
a: 81%

q: # assay system Serine/threonine-protein kinase MARK1 (Homo sapiens): give residual activity of COc1ccc(OC)c2c(=S)c3ccccc3[nH]c12
a: 87%

q: # assay system Serine/threonine-protein kinase MARK1 (Homo sapiens): give residual activity of Oc1c2ccccc2c2c3c(cccc13)N=N2
a: 38%

q: # assay system Serine/threonine-protein kinase MARK1 (Homo sapiens): give residual activity of COc1cccc(-c2cc(=O)c3ccccc3o2)c1N
a: 87%

q: # assay system Serine/threonine-protein kinase MARK1 (Homo sapiens): give residual activity of N#Cc1cnc2cnc(NCc3cccnc3)cc2c1Nc1ccc(F)c(Cl)c1
a: -1%

q: # assay system Serine/threonine-protein kinase MARK1 (Homo sapiens): give residual activity of O=[N+]([O-])c1ccc(-c2nc(-c3ccc(F)cc3)c(-c3ccncc3)[nH]2)cc1
a: 91%

* * *

Each entry below lists one item and its recorded residual activity value.
TARGET_ENTITY: Serine/threonine-protein kinase Nek7 (Homo sapiens)
TEST_CONDITIONS: at 1 µM
Description: Millipore: Percentage of residual kinase activity of NEK7 at 1uM relative to control. Control inhibitor: Phosphoric acid* at 0.3uM. Buffer: 8 mM MOPS pH 7.0, 0.2 mM EDTA
Give just the numeric value; % need not be written.

MOLECULE	RECORDED_ENDPOINT	NUMERIC_VALUE
CC#CC(=O)Nc1cc2c(Nc3ccc(F)c(Cl)c3)ncnc2cn1	residual activity	94
Cc1cccc(-c2[nH]c(C(C)(C)C)nc2-c2ccc3c(c2)OCO3)n1	residual activity	94
O=Nc1c(-c2c(O)[nH]c3ccccc23)[nH]c2ccccc12	residual activity	106
O=C1Nc2ccccc2/C1=C1/Nc2ccccc2/C1=N\OCCC(O)CO (configuration not stated)	residual activity	104

q: Consider the molecule CN(C)CCCn1cc(C2=C(c3c[nH]c4ccccc34)C(=O)NC2=O)c2ccccc21 and give its recorded residual activity.
a: 117

q: Consider the molecule Oc1c2ccccc2c2c3c(cccc13)N=N2 and give its recorded residual activity.
a: 99

q: Consider the molecule COc1ccc(CNc2nc(N(CCO)CCO)nc3c2ncn3C(C)C)cc1 and give its recorded residual activity.
a: 96

q: Consider the molecule CC(C)n1cnc2/c(=N/c3cccc(Cl)c3)nc(NCCO)[nH]c21 and give its recorded residual activity.
a: 102

* * *

TARGET_ENTITY: MAP kinase-activated protein kinase 5 (Homo sapiens)
TEST_CONDITIONS: at 1 µM
RECORDED_ENDPOINT: residual activity
Please format your answer as a value with the unit trailing.

N#CCCc1ccc2c(c1)-c1[nH]c3ccc([N+](=O)[O-])cc3c1CC(=O)N2 68%
Oc1c2ccccc2c2c3c(cccc13)N=N2 59%
COc1cc2ncnc(Nc3ccc(Oc4ccccc4)cc3)c2cc1OC 120%

q: Consider the compound N#C/C(=C(\N)Sc1ccc(N)cc1)c1ccccc1C(F)(F)F and give its recorded residual activity.
a: 91%

q: Consider the compound O=C1NC(=O)c2c1c1c3ccccc3[nH]c1c1[nH]c3cc(Br)ccc3c21 and give its recorded residual activity.
a: 105%

* * *

TARGET_ENTITY: Protein kinase C theta type (Homo sapiens)
TEST_CONDITIONS: at 10 µM
RECORDED_ENDPOINT: residual activity (%)
Give just the numeric value; % need not be written.

Solved entries:
MOLECULE	TARGET_ENTITY	residual activity / %
Cn1nc2c3c(cccc31)C(=O)c1ccccc1-2	Protein kinase C theta type (Homo sapiens)	86
COc1cc2ncnc(Nc3ccc(NC(=O)c4ccccc4)cc3)c2cc1OC	Protein kinase C theta type (Homo sapiens)	101
O=C(O)c1ccc2c3c1cccc3c(=O)n1c3ccccc3nc21	Protein kinase C theta type (Homo sapiens)	107
Nc1nc(Nc2ccc(S(N)(=O)=O)cc2)nn1C(=S)Nc1c(F)cccc1F	Protein kinase C theta type (Homo sapiens)	2
Nc1n[nH]c2nnc(-c3c(-c4ccccc4)nn4ccccc34)cc12	Protein kinase C theta type (Homo sapiens)	16

With those in mind, consider the next molecule.
q: # assay system Protein kinase C theta type (Homo sapiens): give residual activity of CC(=O)c1ccc(N2CCOCC2)cc1O
a: 102

* * *

Each entry below lists one item and its recorded residual activity value.
TARGET_ENTITY: Mitogen-activated protein kinase 13 (Homo sapiens)
TEST_CONDITIONS: at 1 µM
Give just the numeric value; % need not be written.

Solved entries:
O=C1NC(=O)c2c1c1c3ccccc3[nH]c1c1[nH]c3cc(Br)ccc3c21 101
CO[C@H]1C[C@@H]2CC[C@@H](C)[C@@](O)(O2)C(=O)C(=O)N2CCCC[C@H]2C(=O)O[C@H]([C@H](C)C[C@@H]2CC[C@@H](O)[C@H](OC)C2)CC(=O)[C@H](C)/C=C(\C)[C@@H](O)[C@@H](OC)C(=O)[C@H](C)C[C@H](C)/C=C/C=C/C=C/1C 110
Nc1ccc2ncnc(NCCc3ccc(Oc4ccccc4)cc3)c2c1 112

q: Consider the compound CCOc1cc2ncnc(Nc3cccc(Br)c3)c2cc1OCC and give its recorded residual activity.
a: 91

q: Consider the compound CC(C)n1cnc2c(NCc3ccccc3)nc(NCCCO)nc21 and give its recorded residual activity.
a: 76

q: Consider the compound COc1ccc(OC)c2c(=S)c3ccccc3[nH]c12 and give its recorded residual activity.
a: 104

q: Consider the compound Oc1n[nH]c2nnc(-c3c(-c4ccccc4)nn4ccccc34)cc12 and give its recorded residual activity.
a: 96

q: Consider the compound CNc1cc2c(Nc3cccc(Br)c3)ncnc2cn1 and give its recorded residual activity.
a: 110

q: Consider the compound c1ccc(-c2n[nH]c3c2oc2ccccc23)cc1 and give its recorded residual activity.
a: 86

q: Consider the compound CO[C@H]1[C@@H](OC)C[C@H](C)[C@@H](OC)C2=CC(=O)C=C(NC(=O)/C(C)=C/C=C/[C@H](OC)[C@@H](OC(N)=O)/C(C)=C/[C@@H]1C)C2=O and give its recorded residual activity.
a: 89

q: Consider the compound CCC(=O)Nc1ccc2ncnc(Nc3cccc(Br)c3)c2c1 and give its recorded residual activity.
a: 100

q: Consider the compound Cc1cccc(-c2[nH]c(C(C)(C)C)nc2-c2ccc3c(c2)OCO3)n1 and give its recorded residual activity.
a: 106

q: Consider the compound COc1cc2ncnc(N3CCN(C(=O)Nc4ccc(Oc5ccccc5)cc4)CC3)c2cc1OC and give its recorded residual activity.
a: 112

q: Consider the compound Cc1ccc(S(=O)(=O)/C=C/C#N)cc1 and give its recorded residual activity.
a: 104

q: Consider the compound c1ccc(-c2n[nH]cc2-c2ccnc3ccccc23)nc1 and give its recorded residual activity.
a: 106

q: Consider the compound COc1cc2ncnc(Nc3ccc(O)c(Br)c3)c2cc1OC and give its recorded residual activity.
a: 111

q: Consider the compound O=c1c2ccccc2[nH]c(=S)n1CCN1CCC(=C(c2ccc(F)cc2)c2ccc(F)cc2)CC1 and give its recorded residual activity.
a: 102

q: Consider the compound CO[C@@H]1[C@H](N(C)C(=O)c2ccccc2)C[C@H]2O[C@]1(C)n1c3ccccc3c3c4c(c5c6ccccc6n2c5c31)C(=O)NC4 and give its recorded residual activity.
a: 92

q: Consider the compound C[C@@H](N)[C@H]1CC[C@H](C(=O)Nc2ccncc2)CC1 and give its recorded residual activity.
a: 112
